# Test system: MDA-MB-134VI cells
# assay protocol: MDA-MB-134VI cell proliferation inhibition assay (CTG)
# Assay type: cell-based
# details: Homo sapiens, 240 h, Second experiment, 10 days
# Procedure: (5) HCC1428 and MDA-MB-134VI Cell Proliferation Inhibition Assay The initial concentration of the compound of formula (I) was set at 200 nM, followed by 4-fold serial dilutions to achieve ten concentration gradients. • 1) MDA-MB-134VI cells were cultured in DMEM complete growth medium containing 20% FBS and 1% PenStrep. • 2) When the cells in a T75 culture flask reached 80-90% cell fusion, they were digested with trypsin and collected. […]
measure: IC50 (nM)
One number for each entry, in nM.

Consider the compound shown here: FCCCN1CC[C@H](Nc2cnc(C3=C(CC(F)(F)F)CCCc4c3ccc3[nH]nc(F)c43)cn2)C1 What is its recorded IC50?
0.49

----------
# assay protocol: Pharmacokinetic study in Beagle dogs
# Type: in vivo
# details: both sexes, dog, plasma, Beagles, PO, 1 mg/kg
measure: half-life (h)
Numbers only, in h.

Consider the molecule shown here: CS(=O)(=O)O.FCCCN1CC[C@H](Nc2cnc(C3=C(CC(F)(F)F)CCCc4c3ccc3[nH]nc(F)c43)cn2)C1 What is its recorded half-life?
21.6

----------
# assay protocol: Pharmacokinetic study in rats
# Format: in vivo
# details: both sexes, Sprague-Dawley, rat, plasma, IV, 1 mg/kg
measure: half-life (h)
Give bare numbers, in h.

Consider the molecule shown here: CS(=O)(=O)O.FCCCN1CC[C@H](Nc2cnc(C3=C(CC(F)(F)F)CCCc4c3ccc3[nH]nc(F)c43)cn2)C1 What is its recorded half-life?
10.6

----------
# experimental target: Estrogen receptor α (ERα) (Homo sapiens, UniProt P03372)
# Sequence (P03372 1-595): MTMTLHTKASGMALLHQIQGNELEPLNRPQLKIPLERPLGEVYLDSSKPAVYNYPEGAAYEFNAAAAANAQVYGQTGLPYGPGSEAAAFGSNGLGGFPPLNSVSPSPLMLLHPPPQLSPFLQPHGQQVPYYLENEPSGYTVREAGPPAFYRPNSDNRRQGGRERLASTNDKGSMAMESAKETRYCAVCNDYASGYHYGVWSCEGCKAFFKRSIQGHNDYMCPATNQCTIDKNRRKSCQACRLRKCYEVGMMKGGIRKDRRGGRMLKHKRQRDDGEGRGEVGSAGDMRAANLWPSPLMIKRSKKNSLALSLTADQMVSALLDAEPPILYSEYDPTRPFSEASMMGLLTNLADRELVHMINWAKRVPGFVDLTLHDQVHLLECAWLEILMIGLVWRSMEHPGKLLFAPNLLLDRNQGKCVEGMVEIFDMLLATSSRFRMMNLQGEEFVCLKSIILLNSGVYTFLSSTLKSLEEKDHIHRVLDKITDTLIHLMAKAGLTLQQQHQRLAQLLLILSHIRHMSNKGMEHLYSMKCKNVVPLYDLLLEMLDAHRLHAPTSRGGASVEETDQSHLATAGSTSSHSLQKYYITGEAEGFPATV
measure: Ki (nM)
One number for each entry, in nM.

Consider the molecule shown here: FCCCN1CC[C@H](Nc2cnc(C3=C(CC(F)(F)F)CCCc4c3ccc3[nH]nc(F)c43)cn2)C1 What is its recorded Ki?
0.1

----------
# assay protocol: Pharmacokinetic study in rats
# Type: in vivo
# details: both sexes, Sprague-Dawley, rat, plasma, IV, 1 mg/kg, read-out: Vdss
measure: Vd

Consider the compound shown here: CS(=O)(=O)O.FCCCN1CC[C@H](Nc2cnc(C3=C(CC(F)(F)F)CCCc4c3ccc3[nH]nc(F)c43)cn2)C1 What is its recorded Vd?
13.6 L/kg

----------
# experimental target: CYP1A2 (Homo sapiens, UniProt P05177)
# Sequence (P05177 whole entry): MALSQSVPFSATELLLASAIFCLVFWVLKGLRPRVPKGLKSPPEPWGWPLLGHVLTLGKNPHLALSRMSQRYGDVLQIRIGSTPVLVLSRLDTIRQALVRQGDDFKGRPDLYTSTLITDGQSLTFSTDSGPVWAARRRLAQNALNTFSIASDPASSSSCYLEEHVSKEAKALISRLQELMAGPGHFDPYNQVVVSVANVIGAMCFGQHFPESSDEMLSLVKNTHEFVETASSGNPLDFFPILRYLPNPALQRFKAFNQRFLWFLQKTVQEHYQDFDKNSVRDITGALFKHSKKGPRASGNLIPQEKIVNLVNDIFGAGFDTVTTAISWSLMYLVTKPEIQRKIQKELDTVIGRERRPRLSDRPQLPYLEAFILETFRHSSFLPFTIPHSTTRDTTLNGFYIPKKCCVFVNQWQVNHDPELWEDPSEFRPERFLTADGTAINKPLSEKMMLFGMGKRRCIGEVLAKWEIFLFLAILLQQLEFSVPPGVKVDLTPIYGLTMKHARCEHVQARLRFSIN
measure: pIC50
Answers are plain numbers, as −log10 of the molar value.

Consider the compound shown here: FCCCN1CC[C@H](Nc2cnc(C3=C(CC(F)(F)F)CCCc4c3ccc3[nH]nc(F)c43)cn2)C1 What is its recorded pIC50?
4.01

----------
# Test system: MDA-MB-134VI cells
# assay protocol: MDA-MB-134VI cell proliferation inhibition assay (CTG)
# Type: cell-based
# details: Homo sapiens, 240 h, Mean ± SD, 10 days
measure: IC50
Hey, just the number and the unit after it is fine.

Consider the compound shown here: FCCCN1CC[C@H](Nc2cnc(C3=C(CC(F)(F)F)CCCc4c3ccc3[nH]nc(F)c43)cn2)C1 What is its recorded IC50?
0.31 nM

----------
# assay protocol: Pharmacokinetic study in mice
# Format: in vivo
# details: female, Balb/c, mouse, plasma, IV, 5 mg/kg, read-out: Vdss
measure: Vd (L/kg)
Numbers only, in L/kg.

Consider the molecule shown here: FCCCN1CC[C@H](Nc2cnc(C3=C(CC(F)(F)F)CCCc4c3ccc3[nH]nc(F)c43)cn2)C1 What is its recorded Vd?
11.1

----------
# Tested on: MDA-MB-134VI cells
# assay protocol: MDA-MB-134VI cell proliferation inhibition assay (CTG)
# Format: cell-based
# details: Homo sapiens, 240 h, First experiment, 10 days
measure: IC50 (nM)
Answers are plain numbers, in nM.

Consider the compound shown here: FCCCN1CC[C@H](Nc2cnc(C3=C(CC(F)(F)F)CCCc4c3ccc3[nH]nc(F)c43)cn2)C1 [Compound of formula (I)] What is its recorded IC50?
0.12

----------
# assay protocol: Pharmacokinetic study in Beagle dogs
# Assay type: in vivo
# details: both sexes, dog, plasma, Beagles, IV, 0.3 mg/kg
measure: half-life
Hey, just the number and the unit after it is fine.

Consider the compound shown here: CS(=O)(=O)O.FCCCN1CC[C@H](Nc2cnc(C3=C(CC(F)(F)F)CCCc4c3ccc3[nH]nc(F)c43)cn2)C1 What is its recorded half-life?
24.2 h

----------
# assay protocol: Pharmacokinetic study in Beagle dogs
# Assay type: in vivo
# details: both sexes, dog, plasma, Beagles, IV, 0.3 mg/kg
measure: AUC(0-t) (µM·h)
Give bare numbers, in µM·h.

Consider the compound shown here: CS(=O)(=O)O.FCCCN1CC[C@H](Nc2cnc(C3=C(CC(F)(F)F)CCCc4c3ccc3[nH]nc(F)c43)cn2)C1 What is its recorded AUC(0-t)?
1.31

----------
# assay protocol: Pharmacokinetic study in mice
# Type: in vivo
# details: female, Balb/c, mouse, plasma, PO, 10 mg/kg
measure: Cmax (nM)
Answers are plain numbers, in nM.

Consider the compound shown here: FCCCN1CC[C@H](Nc2cnc(C3=C(CC(F)(F)F)CCCc4c3ccc3[nH]nc(F)c43)cn2)C1 What is its recorded Cmax?
779

----------
# Test system: CAMA-1 cells
# assay protocol: CAMA-1 cell proliferation inhibition assay (CTG)
# Type: cell-based
# details: Homo sapiens, CAMA-1, First experiment; 1 nM estradiol
measure: IC50 (nM)
Answers are plain numbers, in nM.

Consider the compound shown here: FCCCN1CC[C@H](Nc2cnc(C3=C(CC(F)(F)F)CCCc4c3ccc3[nH]nc(F)c43)cn2)C1 [Compound of formula (I)] What is its recorded IC50?
1.19

----------
# assay protocol: Pharmacokinetic study in Beagle dogs
# Type: in vivo
# details: both sexes, dog, plasma, Beagles, PO, 1 mg/kg
measure: AUC(0-t)

Consider the compound shown here: CS(=O)(=O)O.FCCCN1CC[C@H](Nc2cnc(C3=C(CC(F)(F)F)CCCc4c3ccc3[nH]nc(F)c43)cn2)C1 What is its recorded AUC(0-t)?
2.27 µM·h

----------
# assay protocol: Pharmacokinetic study in mice
# Assay type: in vivo
# details: female, Balb/c, mouse, plasma, IV, 5 mg/kg
measure: clearance
Hey, just the number and the unit after it is fine.

Consider the molecule shown here: FCCCN1CC[C@H](Nc2cnc(C3=C(CC(F)(F)F)CCCc4c3ccc3[nH]nc(F)c43)cn2)C1 What is its recorded clearance?
30.2 mL/min/kg

----------
# assay protocol: Pharmacokinetic study in rats
# Type: in vivo
# details: both sexes, Sprague-Dawley, rat, plasma, PO, 2 mg/kg
measure: half-life
Hey, just the number and the unit after it is fine.

Consider the molecule shown here: CS(=O)(=O)O.FCCCN1CC[C@H](Nc2cnc(C3=C(CC(F)(F)F)CCCc4c3ccc3[nH]nc(F)c43)cn2)C1 What is its recorded half-life?
618 min

----------
# assay protocol: Pharmacokinetic study in mice
# Assay type: in vivo
# details: female, Balb/c, mouse, plasma, PO, 10 mg/kg
measure: half-life (h)
One number for each entry, in h.

Consider the compound shown here: FCCCN1CC[C@H](Nc2cnc(C3=C(CC(F)(F)F)CCCc4c3ccc3[nH]nc(F)c43)cn2)C1 What is its recorded half-life?
4.72

----------
# assay protocol: Pharmacokinetic study in rats
# Assay type: in vivo
# details: both sexes, Sprague-Dawley, rat, plasma, PO, 2 mg/kg
measure: AUC(0-t) (µM·h)
Answers are plain numbers, in µM·h.

Consider the compound shown here: CS(=O)(=O)O.FCCCN1CC[C@H](Nc2cnc(C3=C(CC(F)(F)F)CCCc4c3ccc3[nH]nc(F)c43)cn2)C1 What is its recorded AUC(0-t)?
1.63

All figures here come from patent US12410155B2.
